Every entry's value here was drawn from patent US20240336608A1.

Give measured EC50 for each item. Keep answers brief.
# tgt: recombinant IL4I1 (Homo sapiens, UniProt Q96RQ9)
# assay-details: IL4I1 Enzymatic Assay (Amplex Red/HRP coupled detection of H2O2, fluorescence)
# measurement-context: 1 nM recombinant IL4I1; four-hour pre-incubation with compound; 1 mM each Phe, Tyr, Trp; ten-point titration
# Description: Interleukin 4 inducible protein 1 (IL4I1) is an L-amino oxidase that catalyzes the oxidation of aromatic residues (Phe, Trp and Tyr): L-amino acid+H2O+O2→2-oxo acid+NH3+H2O2. […] In this assay, the hydrogen peroxide generated by IL4I1 is then detected through a coupled reaction with Amplex Red (10-acetyl-3,7-dihydroxyphenoxazine) and […] (HRP) to produce Resorufin product that could be detected in the form of fluorescence signals. […]
Don't forget the unit after the number, please.

Example cases with answers are listed next.
[
  {
    "compound": "Cc1ccc(-n2cc(C(=O)NCc3ccc(-c4cccc(F)c4F)nn3)nn2)c(C)n1 [Example 117]",
    "EC50": "692 nM"
  },
  {
    "compound": "CC(C)CCn1cc(C(=O)NCc2nnc(-c3ccccc3)s2)nn1 [Example 94]",
    "EC50": "68 nM"
  },
  {
    "compound": "O=C(NCc1nnc(-c2ccccc2)s1)c1cn(C2CC2(F)F)nn1 (single isomer, unassigned) [Example 130]",
    "EC50": "5 nM"
  }
]

Let us examine a further case.
Exercise: Look up and report measured EC50 for this entry: Cc1nc(O)ccc1-n1cc(C(=O)NCc2nnc(-c3ccccc3)s2)nn1 [Example 230]
Solution: 6 nM

* * *

# tgt: recombinant IL4I1 (Homo sapiens)
# assay-details: IL4I1 Enzymatic Assay (Amplex Red/HRP coupled detection of H2O2, fluorescence)
# measurement-context: 1 nM recombinant IL4I1; four-hour pre-incubation with compound; 1 mM each Phe, Tyr, Trp; ten-point titration
Give measured log10(EC50) for each item. Keep answers brief.
// do not treat as linear: log10 of EC50, unit µM

Example cases with answers are listed next.
[
  {
    "molecule": "O=C(NCc1nnc(-c2ccccc2)s1)c1cn([C@@H]2COC[C@@H]2F)nn1 [Example 198]",
    "log10(EC50)": -1.77
  },
  {
    "molecule": "CC(C)(O)Cn1cc(C(=O)NCc2nnc(-c3ccccc3)s2)nn1 [Example 323]",
    "log10(EC50)": -0.69
  },
  {
    "molecule": "Cc1ccc(C(=O)NCc2nnc(-c3ccccc3)s2)[nH]1 [Example 17]",
    "log10(EC50)": -0.32
  },
  {
    "molecule": "O=C(NCc1nnc(-c2ccccc2)s1)c1csc(Cc2ccccc2)n1 [Example 16]",
    "log10(EC50)": -1.08
  }
]

// for each molecule in input: emit log10(EC50)
1. Cn1cc(C(=O)NCc2cc(-c3ccccc3)no2)nn1 [Example 218]
2. O=C(NCc1nnc(-c2ccccc2)s1)c1cn(C[C@H]2CCCO2)nn1 [Example 179]
3. Cc1ccc(-n2cc(C(=O)NCc3ccc(-c4cccc(F)c4)nn3)nn2)c(C)n1 [Example 120]

Solution:
-0.74
-0.62
-0.91

// for each molecule in input: emit log10(EC50)
1. O=C(NCc1nnc(-c2ccccc2)s1)c1cn(C2(CO)CC2)nn1 [Example 159]
2. Cc1ccc(-n2cc(C(=O)NCc3nnc(-c4ccccc4)s3)nn2)c(C(C)(C)O)n1 [Example 338]

Solution:
[-0.77, -1.62]

* * *

# tgt: recombinant IL4I1 (Homo sapiens)
# Sequence (Q96RQ9 22-567): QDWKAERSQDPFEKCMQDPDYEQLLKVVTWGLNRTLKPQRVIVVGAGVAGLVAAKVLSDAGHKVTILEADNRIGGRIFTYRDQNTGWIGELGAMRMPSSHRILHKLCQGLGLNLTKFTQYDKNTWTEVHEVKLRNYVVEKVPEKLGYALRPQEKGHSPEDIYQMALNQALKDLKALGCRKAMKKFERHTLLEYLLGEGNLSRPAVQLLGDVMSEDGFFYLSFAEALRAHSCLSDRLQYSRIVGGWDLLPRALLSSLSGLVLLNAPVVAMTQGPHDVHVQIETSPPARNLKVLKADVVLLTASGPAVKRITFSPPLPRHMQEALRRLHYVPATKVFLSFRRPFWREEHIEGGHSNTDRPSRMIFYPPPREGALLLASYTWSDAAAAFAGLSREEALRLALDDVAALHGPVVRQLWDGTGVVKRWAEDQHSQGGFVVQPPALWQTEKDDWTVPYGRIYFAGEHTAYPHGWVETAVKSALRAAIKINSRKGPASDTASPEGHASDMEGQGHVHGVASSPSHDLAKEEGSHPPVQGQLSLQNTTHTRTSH
# assay-details: IL4I1 Enzymatic Assay (Amplex Red/HRP coupled detection of H2O2, fluorescence)
# measurement-context: 1 nM recombinant IL4I1; four-hour pre-incubation with compound; 1 mM each Phe, Tyr, Trp; ten-point titration
pEC50: −log10 of the molar value.
pEC50 of 7 or higher: True. Under 7: False.

Before answering, review these 3 worked examples.
[
  {
    "molecule": "O=C(NCc1nnc(-c2ccccc2)s1)c1cn(CC(O)C2CC2)nn1 (stereo not drawn) [Example 181]",
    "tgt": "recombinant IL4I1 (Homo sapiens)",
    "classification": "False"
  },
  {
    "molecule": "CN(C)C(=O)CCn1cc(C(=O)NCc2nnc(-c3ccccc3)s2)nn1 [Example 193]",
    "tgt": "recombinant IL4I1 (Homo sapiens)",
    "classification": "False"
  },
  {
    "molecule": "C[C@H](CCF)n1cc(C(=O)NCc2nnc(-c3ccccc3)s2)nn1 [Example 170]",
    "tgt": "recombinant IL4I1 (Homo sapiens)",
    "classification": "True"
  }
]

Exercise: Hi team, for O=C(NCc1nnc(-c2ccccc2)s1)c1cn(CCC(F)F)nn1 [Example 171] , is the recorded pEC50 at or above 7?
Solution: True

Exercise: Hi team, for O=C(NCc1nnc(-c2ccccc2)s1)c1cn([C@H]2C[C@@H](O)C2)nn1 [Example 282] , is the recorded pEC50 at or above 7?
Solution: True

Exercise: Hi team, for Cc1oc(C)c(C(=O)NCc2nnc(-c3ccccc3)s2)c1C [Example 40] , is the recorded pEC50 at or above 7?
Solution: False

Exercise: Hi team, for Cc1ccc(-n2cc(C(=O)NCc3ccc(C4CCCCC4)nn3)nn2)c(C)n1 [Example 326] , is the recorded pEC50 at or above 7?
Solution: False

Exercise: Hi team, for C[C@@H]1C[C@H]1n1cc(C(=O)NCc2nnc(-c3ccccc3)s2)nn1 [Example 134] , is the recorded pEC50 at or above 7?
Solution: False

* * *

# tgt: recombinant IL4I1 (Homo sapiens, UniProt Q96RQ9)
# assay-details: IL4I1 Enzymatic Assay (Amplex Red/HRP coupled detection of H2O2, fluorescence)
# measurement-context: 1 nM recombinant IL4I1; four-hour pre-incubation with compound; 1 mM each Phe, Tyr, Trp; ten-point titration
measured-quantity: pEC50
Answers are plain numbers, as −log10 of the molar value.

// for each compound in input: emit pEC50
1. Cc1ccc(-n2cc(C(=O)NCc3nnc(-c4ccc(F)cc4F)s3)nn2)c(C)n1
2. Cn1cc(-n2cc(C(=O)NCc3nnc(-c4ccccc4)s3)nn2)cn1
3. NC(=O)C(F)(F)Cn1cc(C(=O)NCc2nnc(-c3ccccc3)s2)nn1
4. O=C(NCc1nnc(-c2ccccc2)s1)c1cn(CCCC(F)(F)F)nn1
5. Cc1ccc(-n2cc(C(=O)NCc3nnc(-c4ccccc4)s3)nn2)cn1
6. CCCn1cc(C(=O)NCc2nnc(-c3ccccc3)s2)nn1

Solution:
1. 6.04
2. 7.41
3. 8.10
4. 6.57
5. 6.84
6. 8.52

// for each compound in input: emit pEC50
1. Cc1ccc(-n2cc(C(=O)NCc3nnc(-c4cc(F)ccc4F)s3)nn2)c(C)n1
2. Cc1ccc(-n2cc(C(=O)NCc3ccc(-n4nccn4)cn3)nn2)c(C)n1
3. CC(C)(C(N)=O)n1cc(C(=O)NCc2cc(-c3ccccc3)on2)nn1
4. Cc1ccc(-n2cc(C(=O)NCc3nnc(C4CCCC4)s3)nn2)c(C)n1
5. CC(C)c1cc(C(=O)NCc2nnc(-c3ccccc3)s2)n[nH]1

Solution:
6.19
6.49
7.57
6.56
6.71

// for each compound in input: emit pEC50
1. C[C@@H](O)[C@H](CO)n1cc(C(=O)NCc2nnc(-c3ccccc3)s2)nn1
2. CNC(=O)Cn1cc(C(=O)NCc2nnc(-c3ccccc3)s2)nn1
3. CC(C)(C)Cn1cc(C(=O)NCc2nnc(-c3ccccc3)s2)nn1
4. O=C(NCc1nnc(-c2ccccc2)s1)c1cn(CC2(CO)CC2)nn1
5. O=C(NCc1nnc(-c2ccccc2)s1)c1cn(Cc2ccccc2)nn1
6. Cc1ccc(-n2cc(C(=O)NCc3nnc(-c4cccc(F)c4C)s3)nn2)c(C)n1
7. C[C@H](CO)Cn1cc(C(=O)NCc2nnc(-c3ccccc3)s2)nn1
8. O=C(NCc1nnc(-c2ccccc2)s1)c1cn(C2(C(F)(F)F)CC2)nn1

Solution:
6.71
8.22
7.38
7.04
7.96
6.51
8.40
6.23

// for each compound in input: emit pEC50
1. CC(NC(=O)c1cn(C)nn1)c1nnc(-c2ccccc2)s1 (single isomer, unassigned) [Example 258]
2. Cc1ccc(-c2cc(C(=O)NCc3nnc(-c4ccccc4)s3)on2)c(C)n1
3. O=C(NCc1nnc(-c2ccccc2)s1)c1cnnn1C1CCOC1 (centres unmarked)
4. CCCc1cc(C(=O)NCc2nnc(-c3ccccc3)s2)no1
5. O=C(NCc1nnc(-c2ccccc2)s1)c1cn(CC2(F)CC2)nn1
6. O=C(NCc1nnc(-c2ccccc2)s1)c1cn(C2COC2)nn1

Solution:
1: 6.31; 2: 6.78; 3: 6.18; 4: 8.52; 5: 8.40; 6: 7.85
